target: UniProt:O60678
Sequence (O60678 whole entry): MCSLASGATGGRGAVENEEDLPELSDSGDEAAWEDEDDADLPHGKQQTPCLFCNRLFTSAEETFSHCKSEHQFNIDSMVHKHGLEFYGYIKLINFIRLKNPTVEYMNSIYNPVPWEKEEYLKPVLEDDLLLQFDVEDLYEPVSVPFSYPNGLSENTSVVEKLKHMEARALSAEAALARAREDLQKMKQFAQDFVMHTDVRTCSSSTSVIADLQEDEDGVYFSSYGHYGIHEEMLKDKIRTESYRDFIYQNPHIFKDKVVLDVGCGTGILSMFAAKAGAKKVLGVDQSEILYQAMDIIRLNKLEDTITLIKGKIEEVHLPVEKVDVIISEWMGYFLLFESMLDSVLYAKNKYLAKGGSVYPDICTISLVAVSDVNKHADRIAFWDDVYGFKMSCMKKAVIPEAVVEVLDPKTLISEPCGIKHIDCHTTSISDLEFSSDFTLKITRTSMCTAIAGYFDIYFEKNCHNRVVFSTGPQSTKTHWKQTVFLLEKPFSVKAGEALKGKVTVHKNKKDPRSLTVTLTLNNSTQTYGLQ
Recorded endpoint: IC50

Query: Retrieve IC50 measured for `CNCCN1CCC(c2cc(C)c3nc(-c4c(OC)cccc4OC)[nH]c3c2)CC1` and print it.
Response: > 25 µM

###

As shown below, each of these compounds has a reported IC50 value.
Target protein (sequence): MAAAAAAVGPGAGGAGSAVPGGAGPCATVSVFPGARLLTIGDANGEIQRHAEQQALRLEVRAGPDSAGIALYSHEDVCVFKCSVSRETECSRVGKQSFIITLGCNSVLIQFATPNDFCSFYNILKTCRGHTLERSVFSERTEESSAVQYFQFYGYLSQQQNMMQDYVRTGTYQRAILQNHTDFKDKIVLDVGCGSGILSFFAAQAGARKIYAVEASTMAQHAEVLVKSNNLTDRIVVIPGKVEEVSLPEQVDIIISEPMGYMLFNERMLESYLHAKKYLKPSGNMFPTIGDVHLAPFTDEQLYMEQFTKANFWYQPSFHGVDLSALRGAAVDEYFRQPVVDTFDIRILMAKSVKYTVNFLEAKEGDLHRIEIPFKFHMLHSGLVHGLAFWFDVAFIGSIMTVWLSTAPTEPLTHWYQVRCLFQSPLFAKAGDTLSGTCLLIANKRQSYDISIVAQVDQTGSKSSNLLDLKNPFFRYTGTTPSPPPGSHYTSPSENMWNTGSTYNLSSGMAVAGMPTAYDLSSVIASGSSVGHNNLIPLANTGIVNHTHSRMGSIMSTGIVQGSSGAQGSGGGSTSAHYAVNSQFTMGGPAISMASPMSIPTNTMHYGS

Query: Give reported IC50 value for `CN[C@@H](C)CN1CCC(c2cc(C)c3nc(-c4cccnc4OC)[nH]c3c2)CC1`
Response: > 30 µM

Query: Find the measured IC50 of `CN[C@H](C)CN1CCC(c2cc(C)c3nc(-c4cccnc4OC)[nH]c3c2)CC1` and report it.
Response: > 30 µM

###

target: UniProt:Q99873
Sequence (Q99873 whole entry): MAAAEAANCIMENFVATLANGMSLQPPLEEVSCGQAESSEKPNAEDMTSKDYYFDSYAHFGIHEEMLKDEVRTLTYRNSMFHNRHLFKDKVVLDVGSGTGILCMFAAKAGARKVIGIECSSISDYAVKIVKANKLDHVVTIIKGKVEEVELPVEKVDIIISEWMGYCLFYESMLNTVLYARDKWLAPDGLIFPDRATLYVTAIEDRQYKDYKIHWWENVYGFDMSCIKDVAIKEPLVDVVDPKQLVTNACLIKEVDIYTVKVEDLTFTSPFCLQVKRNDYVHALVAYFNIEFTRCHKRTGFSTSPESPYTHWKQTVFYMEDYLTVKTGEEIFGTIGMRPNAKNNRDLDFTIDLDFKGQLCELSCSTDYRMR
Recorded endpoint: IC50

Query: Assign IC50 to the following record: `CNCCN1CCC(c2cc(C)c3nc(-c4c(OC)cccc4OC)[nH]c3c2)CC1`
Response: > 25 µM
